Consider the following compounds and their measured hERG current change (%, negative = inhibition) at 10uM readings.
Target: human ether-à-go-go-related gene (hERG) potassium channel (human)
Sequence (Q12809 whole entry, looked up): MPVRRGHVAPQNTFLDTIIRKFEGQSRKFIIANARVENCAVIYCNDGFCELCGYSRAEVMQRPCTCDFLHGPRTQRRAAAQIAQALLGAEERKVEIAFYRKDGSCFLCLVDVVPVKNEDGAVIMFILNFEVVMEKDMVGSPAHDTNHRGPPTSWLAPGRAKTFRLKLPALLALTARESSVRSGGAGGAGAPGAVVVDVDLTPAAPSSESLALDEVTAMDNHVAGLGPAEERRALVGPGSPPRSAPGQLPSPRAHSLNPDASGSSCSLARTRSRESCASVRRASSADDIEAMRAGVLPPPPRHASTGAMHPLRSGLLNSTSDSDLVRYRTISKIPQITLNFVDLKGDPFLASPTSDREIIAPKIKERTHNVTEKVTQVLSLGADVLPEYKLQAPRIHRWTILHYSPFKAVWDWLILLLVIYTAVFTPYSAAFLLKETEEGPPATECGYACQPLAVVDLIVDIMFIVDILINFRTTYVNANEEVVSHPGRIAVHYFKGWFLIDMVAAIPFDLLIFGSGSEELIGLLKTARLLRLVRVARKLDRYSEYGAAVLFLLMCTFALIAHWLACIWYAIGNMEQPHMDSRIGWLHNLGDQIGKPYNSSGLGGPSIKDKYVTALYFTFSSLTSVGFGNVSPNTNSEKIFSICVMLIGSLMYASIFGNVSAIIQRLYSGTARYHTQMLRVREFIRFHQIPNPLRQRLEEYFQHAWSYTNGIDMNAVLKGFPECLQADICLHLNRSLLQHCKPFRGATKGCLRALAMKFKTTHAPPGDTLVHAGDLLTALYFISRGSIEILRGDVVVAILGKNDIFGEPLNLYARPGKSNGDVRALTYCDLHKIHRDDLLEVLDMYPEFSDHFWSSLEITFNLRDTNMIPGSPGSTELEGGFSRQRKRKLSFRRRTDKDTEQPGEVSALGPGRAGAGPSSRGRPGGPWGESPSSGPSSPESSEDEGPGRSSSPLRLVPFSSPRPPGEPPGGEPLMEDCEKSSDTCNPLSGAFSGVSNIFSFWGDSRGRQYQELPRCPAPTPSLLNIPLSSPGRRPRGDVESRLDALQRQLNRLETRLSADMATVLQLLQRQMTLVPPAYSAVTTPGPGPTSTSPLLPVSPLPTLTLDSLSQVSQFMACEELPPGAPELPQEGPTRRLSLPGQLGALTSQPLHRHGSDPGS
Experiment: primary screen, population patch clamp on CHO cells stably expressing hERG; higher = less effect of the substance
In all, about 310,000 compounds went through this assay and about 14,000 (4.5%) showed an effect of 50% or more. The effect is printed as a negative number. This excerpt belongs to a sample that is enriched for strong results.
Quantity: hERG current change (%, negative = inhibition) at 10uM (%)

Compound: CC1(C)CC(=O)C=C(N2CCOCC2)C1
Tested on: human ether-à-go-go-related gene (hERG) potassium channel (human)
Readout units: %
Value measured: 15.6
//
Compound: CC(O)c1nc2ccccc2n1Cc1ccccc1 (stereo not drawn)
Tested on: human ether-à-go-go-related gene (hERG) potassium channel (human)
Readout units: %
Value measured: 3.15
//
Compound: O=C(c1cc(-c2ccncc2)nc2ccccc12)N1CCN(S(=O)(=O)/C=C/c2ccccc2)CC1
Tested on: human ether-à-go-go-related gene (hERG) potassium channel (human)
Readout units: %
Value measured: -66.6
//
Compound: Cc1ccc(-n2c3nc(=O)[nH]c(=O)c-3cc3cc([N+](=O)[O-])ccc32)cc1C
Tested on: human ether-à-go-go-related gene (hERG) potassium channel (human)
Readout units: %
Value measured: -26.9
//
Compound: CS(=O)(=O)N1CCN(C(=O)c2cc(-c3ccccc3)nc3ccccc23)CC1
Tested on: human ether-à-go-go-related gene (hERG) potassium channel (human)
Readout units: %
Value measured: -30.8
//
Compound: Cc1ccc(-c2ccc(C(=O)NCCCNC(=O)c3cnccn3)o2)cc1Cl
Tested on: human ether-à-go-go-related gene (hERG) potassium channel (human)
Readout units: %
Value measured: 25.5
//
Compound: CC(C)(C)C(=O)COC(=O)c1cc(-c2ccncc2)nc2ccccc12
Tested on: human ether-à-go-go-related gene (hERG) potassium channel (human)
Readout units: %
Value measured: -8.43
//
Compound: CNC(=O)NC(=O)COC(=O)c1ccc(-n2c(C)ccc2C)cc1
Tested on: human ether-à-go-go-related gene (hERG) potassium channel (human)
Readout units: %
Value measured: -7.41
//
Compound: CS(=O)(=O)N1CCN(C(=O)c2cc(-c3ccncc3)nc3ccc(Cl)cc23)CC1
Tested on: human ether-à-go-go-related gene (hERG) potassium channel (human)
Readout units: %
Value measured: -12.8
//
Compound: O=C(COc1ccccc1Cl)NCCCNC(=O)c1cnccn1
Tested on: human ether-à-go-go-related gene (hERG) potassium channel (human)
Readout units: %
Value measured: 5.28
//
Compound: CCOC(=O)c1c(-c2ccccc2)c2cc(OC)ccc2n1CCCN(C)C.Cl
Tested on: human ether-à-go-go-related gene (hERG) potassium channel (human)
Readout units: %
Value measured: -72.4
//
Compound: O=C(NCCNC(=O)c1ccc(-c2ccc(Cl)c(Cl)c2)o1)c1cnccn1
Tested on: human ether-à-go-go-related gene (hERG) potassium channel (human)
Readout units: %
Value measured: -71.6
//
Compound: O=C(COc1ccc(Cl)cc1Cl)NCCCNC(=O)c1cnccn1
Tested on: human ether-à-go-go-related gene (hERG) potassium channel (human)
Readout units: %
Value measured: -56.5
//
Compound: O=C(NCc1ccccn1)C1(C(F)(F)F)C/C(=C\CCO)CCCO1 (stereo not drawn)
Tested on: human ether-à-go-go-related gene (hERG) potassium channel (human)
Readout units: %
Value measured: 6.37
//
Compound: COc1ccc2c(c1)c(C(=O)OCCN(C)C)c(C)n2C.Cl
Tested on: human ether-à-go-go-related gene (hERG) potassium channel (human)
Readout units: %
Value measured: -1.4
//
Compound: CCCCn1c(C)c(C(=O)O)c2cc(OC)ccc21
Tested on: human ether-à-go-go-related gene (hERG) potassium channel (human)
Readout units: %
Value measured: 1.59
//
Compound: Cc1nc2ccccc2n1Cc1ccccc1
Tested on: human ether-à-go-go-related gene (hERG) potassium channel (human)
Readout units: %
Value measured: 15.8
//
Compound: CN(C)c1ccc(C2(O)C(=O)c3ccccc3C2=O)cc1
Tested on: human ether-à-go-go-related gene (hERG) potassium channel (human);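 also: peak tail current of the secondary pulse compared with the same well before compound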
Readout units: %
Value measured: 23.4
//
Compound: Cc1ccc(S(=O)(=O)NN2C(=O)/C(=C/c3ccc(C(=O)O)cc3)SC2=S)cc1
Tested on: human ether-à-go-go-related gene (hERG) potassium channel (human);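 also: peak tail current of the secondary pulse compared with the same well before compound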
Readout units: %
Value measured: 19.9
//
Compound: Clc1ccc(CNc2ncccn2)cc1
Tested on: human ether-à-go-go-related gene (hERG) potassium channel (human);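 also: peak tail current of the secondary pulse compared with the same well before compound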
Readout units: %
Value measured: 13.5
//
Compound: O=C(COc1ccc(Cl)cc1)NCCCNC(=O)c1cnccn1
Tested on: human ether-à-go-go-related gene (hERG) potassium channel (human);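 also: peak tail current of the secondary pulse compared with the same well before compound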
Readout units: %
Value measured: -10.2
